# Read-out: Matrix Metallopeptidase 9 (MMP9), MMP9 (gene 4318)
# ASSAY_METHOD_TEXT: BSK_KF3CT_MMP9: BioMAP Diversity Plus: KF3CT Assay for Matrix Metallopeptidase 9 (MMP9) Biomarker Activity (AID 2283074)
# CONDITION_DETAILS: primary human keratinocytes with fibroblasts; actives raise or lower the signal
The source made the active and inactive calls. The calls were made as follows: active = hit-call score of the fitted dose curve at least 0.9, where 1 is the maximum; inactive = score below 0.9.
Form entry, call: pick from active, inactive

Per the assay record, what outcome was assigned to O=C(O)C(F)(F)OC(F)(F)C(F)(F)OC(F)(F)F ?
inactive

Per the assay record, what outcome was assigned to O=C(O)C(Cl)Cl ?
inactive

Per the assay record, what outcome was assigned to COC(=O)C(F)(F)C(F)(F)OC(F)(C(F)(F)F)C(F)(F)OC(F)=C(F)F (configuration not stated) ?
inactive

Per the assay record, what outcome was assigned to C=CC(=O)OCC(F)(F)C(F)F ?
inactive

Per the assay record, what outcome was assigned to CCOP(=S)(OCC)SCSc1ccc(Cl)cc1 ?
active

Per the assay record, what outcome was assigned to O=[N+]([O-])c1ccc(Cl)c(Cl)c1 ?
inactive

Per the assay record, what outcome was assigned to Nc1ccc(Cl)cc1 ?
inactive

###

# Read-out: serum amyloid A (SAA), SAA1 (gene 6288)
# ASSAY_METHOD_TEXT: BSK_CASM3C_SAA: BioMAP Diversity Plus: CASM3C Assay for serum amyloid A (SAA) Biomarker Activity (AID 2283049);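 also: SAA protein level quantified by ELISA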
# CONDITION_DETAILS: primary human coronary artery smooth muscle cells; actives raise or lower the signal
Calls of active or inactive are those of the source. Rule for the calls: active = hit-call score of the fitted dose curve at least 0.9, where 1 is the maximum; inactive = score below 0.9.
Form entry, call: pick from TRUE for active, FALSE for inactive

Per the assay record, what outcome was assigned to FC(F)(F)C(F)(C(F)(F)F)C(F)(F)C(F)(F)CC1CO1 (stereo not drawn) ?
FALSE

Per the assay record, what outcome was assigned to CCOc1ccc(C(C)(C)COCc2cccc(Oc3ccccc3)c2)cc1 ?
FALSE

Per the assay record, what outcome was assigned to ClC(Cl)(Cl)c1ccccc1 ?
FALSE

Per the assay record, what outcome was assigned to Cc1ccc(O)cc1C ?
FALSE

Per the assay record, what outcome was assigned to C=CC(=O)OCC(CC)(COC(=O)C=C)COC(=O)C=C ?
TRUE

Per the assay record, what outcome was assigned to O=C(O)C(F)(F)OC(F)(F)C(F)(F)OC(F)(F)F ?
FALSE

Per the assay record, what outcome was assigned to CCOP(=S)(OCC)SCSc1ccc(Cl)cc1 ?
FALSE

Per the assay record, what outcome was assigned to CCOP(=S)(S)OCC ?
FALSE

Per the assay record, what outcome was assigned to c1ccc2c(c1)Nc1ccccc1S2 ?
FALSE

Per the assay record, what outcome was assigned to O=C(O)C(F)(F)C(F)(F)C(=O)O ?
FALSE

Per the assay record, what outcome was assigned to CC(Cl)CN(C)C (stereo not drawn) ?
FALSE

Per the assay record, what outcome was assigned to CC(O)C(F)(F)C(F)(F)F (stereo not drawn) ?
FALSE

Per the assay record, what outcome was assigned to CC(Cl)(Cl)C(=O)O ?
FALSE

Per the assay record, what outcome was assigned to ClC(Cl)=C(c1ccc(Cl)cc1)c1ccccc1Cl ?
FALSE

Per the assay record, what outcome was assigned to COP(=O)(CCC(=O)NCO)OC ?
FALSE

Per the assay record, what outcome was assigned to O=S(=O)(F)C(F)(F)C(F)(F)C(F)(F)C(F)(F)C(F)(F)C(F)(F)C(F)(F)C(F)(F)F ?
FALSE

Per the assay record, what outcome was assigned to CCNc1nc(Cl)nc(NC(C)(C)C)n1 ?
FALSE

Per the assay record, what outcome was assigned to CC(C)Nc1ccc(Nc2ccccc2)cc1 ?
TRUE

Per the assay record, what outcome was assigned to c1ccc2c(c1)sc1ccccc12 ?
FALSE

Per the assay record, what outcome was assigned to O=P1(N(CCCl)CCCl)NCCCO1 (stereo not drawn) ?
FALSE

Per the assay record, what outcome was assigned to Cc1cccc(N)c1 ?
FALSE

Per the assay record, what outcome was assigned to Cc1ccc([N+](=O)[O-])cc1C ?
FALSE

Per the assay record, what outcome was assigned to CCCCN(CCCC)N=O ?
FALSE

Per the assay record, what outcome was assigned to Nc1cc2c3c(c1)C(c1ccccc1)=N[C@@H](NC(=O)c1cccnc1)C(=O)N3CC2 ?
FALSE

Per the assay record, what outcome was assigned to N#Cc1c(-c2ccc(Cl)cc2)[nH]c(C(F)(F)F)c1Br ?
TRUE

Per the assay record, what outcome was assigned to Cc1c([N+](=O)[O-])cc2c(c1[N+](=O)[O-])C(C)(C)CC2(C)C ?
FALSE

Per the assay record, what outcome was assigned to Cc1ccc(N)cc1N ?
FALSE

Per the assay record, what outcome was assigned to [N-]=[N+]=[N-] ?
FALSE

Per the assay record, what outcome was assigned to O=[N+]([O-])c1ccc(Cl)c(Cl)c1 ?
FALSE

Per the assay record, what outcome was assigned to CCOP(=S)(Oc1ccc([N+](=O)[O-])cc1)c1ccccc1 (stereo not drawn) ?
FALSE

Per the assay record, what outcome was assigned to O=C(O)C(Cl)Cl ?
FALSE

Per the assay record, what outcome was assigned to ClC(Cl)c1ccccc1 ?
FALSE

Per the assay record, what outcome was assigned to O=C(O)C(F)(OC(F)(F)C(F)(F)C(F)(F)F)C(F)(F)F (stereo not drawn) ?
FALSE

###

# ASSAY_METHOD_TEXT: TOX21_p53_BLA_p5_viability: Viability Assessment in the Tox21 HCT-116 p53 Agonism Beta-lactamase Assay, Phase 5 (AID 2283600)
Records with an inconclusive call do not appear. Active and inactive are the calls of the source. Rule for the calls: active = hit-call score of the fitted dose curve at least 0.9, where 1 is the maximum; inconclusive = response in the unintended direction; inactive = score below 0.9.
Form entry, call: pick from class 1 (active), class 0 (inactive)

Per the assay record, what outcome was assigned to Cc1ccc(N)cc1N ?
class 0

Per the assay record, what outcome was assigned to Cc1cccc(N)c1 ?
class 0

Per the assay record, what outcome was assigned to O=NN1CCCC1 ?
class 0

Per the assay record, what outcome was assigned to CCCCN(CC)C(=O)SCCC ?
class 0

Per the assay record, what outcome was assigned to CCOP(=S)(S)OCC ?
class 0

Per the assay record, what outcome was assigned to [N-]=[N+]=[N-] ?
class 0

Per the assay record, what outcome was assigned to CC1(C)CN=C(NN=C(/C=C/c2ccc(C(F)(F)F)cc2)/C=C/c2ccc(C(F)(F)F)cc2)NC1 ?
class 1

Per the assay record, what outcome was assigned to CO/N=C(/C(=O)OC)c1ccccc1COc1ccccc1C ?
class 0

###

# ASSAY_METHOD_TEXT: BSK_CASM3C_SRB: Viability Assessment in the BioMAP Diversity Plus: CASM3C Assay (AID 2283050);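 also: total protein by SRB staining as cytotoxicity measure in parallel cultures; cells exposed to compound for 24 h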
# CONDITION_DETAILS: primary human coronary artery smooth muscle cells
Calls of active or inactive are those of the source. The calls were made as follows: active = hit-call score of the fitted dose curve at least 0.9, where 1 is the maximum; inactive = score below 0.9.
Form entry, call: pick from active, inactive

Per the assay record, what outcome was assigned to O=[N+]([O-])c1ccc(Cl)c(Cl)c1 ?
inactive

Per the assay record, what outcome was assigned to Cc1ccc(N)cc1N ?
inactive

Per the assay record, what outcome was assigned to CCOP(=S)(OCC)SCSc1ccc(Cl)cc1 ?
inactive

Per the assay record, what outcome was assigned to O=P1(N(CCCl)CCCl)NCCCO1 (stereo not given) ?
inactive

Per the assay record, what outcome was assigned to COP(=O)(O)OC ?
inactive

Per the assay record, what outcome was assigned to Nc1ccc2ccccc2c1 ?
inactive

Per the assay record, what outcome was assigned to CC(Cl)(Cl)C(=O)O ?
inactive

Per the assay record, what outcome was assigned to O=S1(=O)OCC2C(CO1)C1(Cl)C(Cl)=C(Cl)C2(Cl)C1(Cl)Cl (stereo not given) ?
inactive

Per the assay record, what outcome was assigned to CCOP(=S)(OCC)SCn1nnc2ccccc2c1=O ?
inactive

Per the assay record, what outcome was assigned to CC(C)(C)OOC(C)(C)C ?
inactive

Per the assay record, what outcome was assigned to c1ccc2c(c1)sc1ccccc12 ?
inactive

Per the assay record, what outcome was assigned to CC(O)C(F)(F)C(F)(F)F (stereo not given) ?
inactive

Per the assay record, what outcome was assigned to CC(Cl)CN(C)C (stereo not given) ?
inactive

Per the assay record, what outcome was assigned to c1ccc(OP(Oc2ccccc2)Oc2ccccc2)cc1 ?
inactive

Per the assay record, what outcome was assigned to Cc1cccc(N)c1 ?
inactive

Per the assay record, what outcome was assigned to CC(C)(C)c1ccc(O)cc1 ?
inactive

Per the assay record, what outcome was assigned to O=P(Oc1ccccc1)(Oc1ccccc1)Oc1ccccc1 ?
inactive

Per the assay record, what outcome was assigned to CSC(C)(C)C=NO ?
inactive

Per the assay record, what outcome was assigned to ClC(Cl)c1ccccc1 ?
inactive

Per the assay record, what outcome was assigned to CCC1(c2ccccc2)C(=O)N=C(O)NC1=O (stereo not given) ?
inactive

Per the assay record, what outcome was assigned to COP(N)(=S)OC ?
inactive

Per the assay record, what outcome was assigned to Nc1ccc(Cl)cc1 ?
inactive

Per the assay record, what outcome was assigned to O=C(O)C1C(C(=O)O)C2(Cl)C(Cl)=C(Cl)C1(Cl)C2(Cl)Cl (stereo not given) ?
inactive

Per the assay record, what outcome was assigned to CN(C)C(=O)Cl ?
inactive

Per the assay record, what outcome was assigned to COP(=O)(CCC(=O)NCO)OC ?
inactive

Per the assay record, what outcome was assigned to O=S(=O)(F)C(F)(F)C(F)(F)C(F)(F)C(F)(F)C(F)(F)C(F)(F)C(F)(F)C(F)(F)F ?
inactive

Per the assay record, what outcome was assigned to CCOP(=S)(NC(C)C)Oc1ccccc1C(=O)OC(C)C (stereo not given) ?
inactive

Per the assay record, what outcome was assigned to NC(=O)C(F)(F)C(F)(F)F ?
inactive

Per the assay record, what outcome was assigned to CCCN(CCC)c1c([N+](=O)[O-])cc(C(C)C)cc1[N+](=O)[O-] ?
inactive

Per the assay record, what outcome was assigned to CCOP(=S)(S)OCC ?
inactive

Per the assay record, what outcome was assigned to ClC1=C(Cl)C2(Cl)C3C(Cl)C(Cl)CC3C1(Cl)C2(Cl)Cl (stereo not given) ?
active

Per the assay record, what outcome was assigned to O=c1ssc(Cl)c1Cl ?
active

Per the assay record, what outcome was assigned to CCCCc1ccccc1 ?
inactive

Per the assay record, what outcome was assigned to CCCCC(CC)COP(=O)(Oc1ccccc1)Oc1ccccc1 (stereo not given) ?
active

Per the assay record, what outcome was assigned to Cc1c([N+](=O)[O-])cc2c(c1[N+](=O)[O-])C(C)(C)CC2(C)C ?
inactive

Per the assay record, what outcome was assigned to CC(C)Nc1ccc(Nc2ccccc2)cc1 ?
active

Per the assay record, what outcome was assigned to CCOP(=S)(OCC)SCS(=O)(=O)CC ?
inactive

Per the assay record, what outcome was assigned to CCC(C)(C)c1ccc(O)cc1 ?
inactive

Per the assay record, what outcome was assigned to O=[N+]([O-])c1ccccc1 ?
inactive

Per the assay record, what outcome was assigned to CC(C)(C)c1ccccc1OP(=O)(Oc1ccccc1)Oc1ccccc1 ?
active

Per the assay record, what outcome was assigned to CCCCOCCOP(=O)(OCCOCCCC)OCCOCCCC ?
inactive

Per the assay record, what outcome was assigned to CC(Cc1ccc(OCC(=O)O)cc1)NCC(O)c1csc(C(F)(F)F)n1 (stereo not given) ?
inactive

Per the assay record, what outcome was assigned to FC(F)(F)C(F)(C(F)(F)F)C(F)(F)C(F)(F)CC1CO1 (stereo not given) ?
inactive

Per the assay record, what outcome was assigned to OCC1CO1 (stereo not given) ?
inactive

Per the assay record, what outcome was assigned to CCN(CC)c1ccccc1 ?
inactive
